# Test protocol: Jurkat cell viability reduction – Jurkat E6.1, NIH starter set, primary screen (AID 364);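 further: 100% = cells treated with 4 µM doxorubicin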
# Test context: Jurkat E6.1 viability, ATP luminescence, 48 h; at 4 µM; active compounds read high
The whole screen tested about 3,300 compounds, of which about 50 (2%) were called active. A selection follows. Results with a measured potency or affinity are listed apart.
Quick list: inhibition per entry.
Property: inhibition (%)

CCOc1cc(CN2CCOCC2)cc(C(C)=O)c1 : 3.2
Cc1ccc2nc(C(F)(F)F)c(C#N)c(N)c2c1 : 11.8
CC(=O)Oc1ccccc1C1OCCN1C(C)=O (stereo unspecified) : -17.2
Cc1cn([C@H]2C=C[C@@H](CO)O2)c(=O)[nH]c1=O : -6.6
CC(=O)Nc1ccc(Oc2ccc3nc(C)[nH]c3c2)cc1 : 6.6
CSc1cc(C)nc(N(C)C(C)=O)n1 : -4.8
CC(=O)Nc1cccc(NC(=O)CSc2nc(C)c(C)c(C)c2C#N)c1 : -4.8
c1ccc(-c2nnc3n2N=C(c2ccc4c(c2)OCO4)CS3)nc1 : -6.9
Clc1ccc2c(c1)C(N1CCNCC1)=Nc1ccccc1O2 : 2.2
COc1ccc(-c2nc3n(n2)C(=O)CC(c2ccco2)S3)cc1 (stereo unspecified) : -1.6
COc1cccc(C2C(C(=O)c3sc(C)nc3C)=C(O)C(=O)N2CCN2CCOCC2)c1OC (stereo unspecified) : 3.5
C(=N\n1cnnc1)/c1ccccn1 : -0.2
O=C(CSc1nnc(-c2ccco2)c(-c2ccco2)n1)Nc1ccccc1 : 0.1
Cn1c(=O)n(C)c2cc(C(=O)c3ccccc3)ccc21 : -1.7
CSc1nc2[nH]c3c(c2c2nnnn12)CCCC3 : 1.2
CCC(=O)Nc1nc(C)c(Oc2ccccc2)c(=O)[nH]1 : -13.8
